- MEASURED_ON: wild-type EGFR (Homo sapiens, UniProt P00533)
- Construct: purchased Signalchem
- Sequence (P00533 25-1210): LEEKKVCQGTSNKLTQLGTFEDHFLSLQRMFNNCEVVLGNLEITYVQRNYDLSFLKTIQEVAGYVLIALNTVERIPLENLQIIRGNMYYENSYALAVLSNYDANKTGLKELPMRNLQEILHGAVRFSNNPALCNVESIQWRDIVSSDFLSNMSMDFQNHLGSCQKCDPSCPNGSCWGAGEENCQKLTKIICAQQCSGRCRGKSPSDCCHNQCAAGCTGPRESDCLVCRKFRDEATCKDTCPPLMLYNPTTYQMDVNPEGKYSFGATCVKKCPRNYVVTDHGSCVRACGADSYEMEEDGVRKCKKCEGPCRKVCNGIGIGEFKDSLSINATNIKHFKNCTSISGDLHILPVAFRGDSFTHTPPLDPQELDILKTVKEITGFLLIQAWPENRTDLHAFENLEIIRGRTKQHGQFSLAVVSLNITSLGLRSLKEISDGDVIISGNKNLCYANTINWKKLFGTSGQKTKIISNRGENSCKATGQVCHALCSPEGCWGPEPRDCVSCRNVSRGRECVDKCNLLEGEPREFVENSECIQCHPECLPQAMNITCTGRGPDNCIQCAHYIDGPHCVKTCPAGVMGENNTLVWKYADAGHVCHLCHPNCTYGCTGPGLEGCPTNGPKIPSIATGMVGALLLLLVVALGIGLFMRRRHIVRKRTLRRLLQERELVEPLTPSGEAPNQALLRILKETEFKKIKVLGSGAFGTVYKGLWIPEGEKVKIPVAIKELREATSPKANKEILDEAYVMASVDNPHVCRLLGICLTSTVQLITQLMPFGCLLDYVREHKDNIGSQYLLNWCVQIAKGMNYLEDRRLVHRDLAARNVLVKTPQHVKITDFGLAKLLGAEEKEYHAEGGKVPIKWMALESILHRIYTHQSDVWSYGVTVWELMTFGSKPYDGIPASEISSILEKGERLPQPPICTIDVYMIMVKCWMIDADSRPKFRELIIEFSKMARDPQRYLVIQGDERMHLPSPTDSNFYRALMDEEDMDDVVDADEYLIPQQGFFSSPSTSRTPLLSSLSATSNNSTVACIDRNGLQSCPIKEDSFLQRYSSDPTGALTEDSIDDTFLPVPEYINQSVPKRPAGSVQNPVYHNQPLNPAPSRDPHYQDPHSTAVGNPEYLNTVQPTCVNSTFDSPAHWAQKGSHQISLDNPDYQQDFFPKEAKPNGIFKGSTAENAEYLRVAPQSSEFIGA
- EXPERIMENT_DESCRIPTION: Enzymology experiment in vitro (HTRF/FRET kinase activity), wild-type EGFR
- Format: biochemical
- RUN_CONDITIONS: HTRF KinEASE-TK, read-out: EGFR (WT) IC50
IC50 less than 0.02 µM is criterion met; IC50 greater than or equal to 0.02 µM is criterion not met.

Here are 5 molecules together with their reported answers.
MOLECULE: COc1cc(C(=O)N(C)C)c(-c2cnn(C)c2)cc1Nc1ncc(Br)c(Nc2ccc3nccnc3c2P(C)(C)=O)n1
MEASURED_ON: wild-type EGFR (Homo sapiens, UniProt P00533)
ASSIGNED_CLASS: criterion not met
--
MOLECULE: COc1cc(N2CCOCC2)c(-c2cnn(C)c2)cc1Nc1ncc(F)c(Nc2ccc3nccnc3c2P(C)(C)=O)n1
MEASURED_ON: wild-type EGFR (Homo sapiens, UniProt P00533)
ASSIGNED_CLASS: criterion met
--
MOLECULE: COc1cc(N2CCC(C)(OC)CC2)c(-c2cnn(C)c2)cc1Nc1ncc(Br)c(Nc2ccccc2P(C)(C)=O)n1
MEASURED_ON: wild-type EGFR (Homo sapiens, UniProt P00533)
ASSIGNED_CLASS: criterion not met
--
MOLECULE: COc1cc(N2C[C@@H]3C[C@H]2CO3)c(-c2cnn(C)c2)cc1Nc1ncc(Br)c(Nc2ccc3nccnc3c2P(C)(C)=O)n1
MEASURED_ON: wild-type EGFR (Homo sapiens, UniProt P00533)
ASSIGNED_CLASS: criterion not met
--
MOLECULE: COc1cc(N2CC(C)OC(C)C2)c(-c2cnn(C)c2)cc1Nc1ncc(Br)c(Nc2ccc3nccnc3c2P(C)(C)=O)n1 (racemic) [compound 135]
MEASURED_ON: wild-type EGFR (Homo sapiens, UniProt P00533)
ASSIGNED_CLASS: criterion met

Report whether reported IC50 is lower than 0.02 µM (strictly) for COc1cc(N2CCOCC2)c(-c2cnn(C)c2)cc1Nc1ncc(C(F)(F)F)c(Nc2ccc3nccnc3c2P(C)(C)=O)n1
criterion met

Another: COc1cc(N2CCN(C(=O)C3CC3)CC2)c(-c2cnn(C)c2)cc1Nc1ncc(Br)c(Nc2ccc3nccnc3c2P(C)(C)=O)n1
criterion met

Another: COc1cc(N2CCC3(CCN(CCF)CC3)CC2)c(-c2cnn(C)c2)cc1Nc1ncc(Br)c(Nc2ccccc2P(C)(C)=O)n1
criterion met

Another: COc1cc(N2CCOC[C@H]2C)c(-c2cnn(C)c2)cc1Nc1ncc(Br)c(Nc2ccc3nccnc3c2P(C)(C)=O)n1
criterion not met

Another: COc1cc(N2CCC(OC)C2)c(-c2cnn(C)c2)cc1Nc1ncc(Br)c(Nc2ccc3nccnc3c2P(C)(C)=O)n1 (stereo not shown)
criterion met
